Sourced from patent US9416115B2

MEASURED TARGET: wild-type human cardiac sodium channel, hNav1.5 (Homo sapiens, UniProt Q14524)
Sequence (Q14524 whole entry): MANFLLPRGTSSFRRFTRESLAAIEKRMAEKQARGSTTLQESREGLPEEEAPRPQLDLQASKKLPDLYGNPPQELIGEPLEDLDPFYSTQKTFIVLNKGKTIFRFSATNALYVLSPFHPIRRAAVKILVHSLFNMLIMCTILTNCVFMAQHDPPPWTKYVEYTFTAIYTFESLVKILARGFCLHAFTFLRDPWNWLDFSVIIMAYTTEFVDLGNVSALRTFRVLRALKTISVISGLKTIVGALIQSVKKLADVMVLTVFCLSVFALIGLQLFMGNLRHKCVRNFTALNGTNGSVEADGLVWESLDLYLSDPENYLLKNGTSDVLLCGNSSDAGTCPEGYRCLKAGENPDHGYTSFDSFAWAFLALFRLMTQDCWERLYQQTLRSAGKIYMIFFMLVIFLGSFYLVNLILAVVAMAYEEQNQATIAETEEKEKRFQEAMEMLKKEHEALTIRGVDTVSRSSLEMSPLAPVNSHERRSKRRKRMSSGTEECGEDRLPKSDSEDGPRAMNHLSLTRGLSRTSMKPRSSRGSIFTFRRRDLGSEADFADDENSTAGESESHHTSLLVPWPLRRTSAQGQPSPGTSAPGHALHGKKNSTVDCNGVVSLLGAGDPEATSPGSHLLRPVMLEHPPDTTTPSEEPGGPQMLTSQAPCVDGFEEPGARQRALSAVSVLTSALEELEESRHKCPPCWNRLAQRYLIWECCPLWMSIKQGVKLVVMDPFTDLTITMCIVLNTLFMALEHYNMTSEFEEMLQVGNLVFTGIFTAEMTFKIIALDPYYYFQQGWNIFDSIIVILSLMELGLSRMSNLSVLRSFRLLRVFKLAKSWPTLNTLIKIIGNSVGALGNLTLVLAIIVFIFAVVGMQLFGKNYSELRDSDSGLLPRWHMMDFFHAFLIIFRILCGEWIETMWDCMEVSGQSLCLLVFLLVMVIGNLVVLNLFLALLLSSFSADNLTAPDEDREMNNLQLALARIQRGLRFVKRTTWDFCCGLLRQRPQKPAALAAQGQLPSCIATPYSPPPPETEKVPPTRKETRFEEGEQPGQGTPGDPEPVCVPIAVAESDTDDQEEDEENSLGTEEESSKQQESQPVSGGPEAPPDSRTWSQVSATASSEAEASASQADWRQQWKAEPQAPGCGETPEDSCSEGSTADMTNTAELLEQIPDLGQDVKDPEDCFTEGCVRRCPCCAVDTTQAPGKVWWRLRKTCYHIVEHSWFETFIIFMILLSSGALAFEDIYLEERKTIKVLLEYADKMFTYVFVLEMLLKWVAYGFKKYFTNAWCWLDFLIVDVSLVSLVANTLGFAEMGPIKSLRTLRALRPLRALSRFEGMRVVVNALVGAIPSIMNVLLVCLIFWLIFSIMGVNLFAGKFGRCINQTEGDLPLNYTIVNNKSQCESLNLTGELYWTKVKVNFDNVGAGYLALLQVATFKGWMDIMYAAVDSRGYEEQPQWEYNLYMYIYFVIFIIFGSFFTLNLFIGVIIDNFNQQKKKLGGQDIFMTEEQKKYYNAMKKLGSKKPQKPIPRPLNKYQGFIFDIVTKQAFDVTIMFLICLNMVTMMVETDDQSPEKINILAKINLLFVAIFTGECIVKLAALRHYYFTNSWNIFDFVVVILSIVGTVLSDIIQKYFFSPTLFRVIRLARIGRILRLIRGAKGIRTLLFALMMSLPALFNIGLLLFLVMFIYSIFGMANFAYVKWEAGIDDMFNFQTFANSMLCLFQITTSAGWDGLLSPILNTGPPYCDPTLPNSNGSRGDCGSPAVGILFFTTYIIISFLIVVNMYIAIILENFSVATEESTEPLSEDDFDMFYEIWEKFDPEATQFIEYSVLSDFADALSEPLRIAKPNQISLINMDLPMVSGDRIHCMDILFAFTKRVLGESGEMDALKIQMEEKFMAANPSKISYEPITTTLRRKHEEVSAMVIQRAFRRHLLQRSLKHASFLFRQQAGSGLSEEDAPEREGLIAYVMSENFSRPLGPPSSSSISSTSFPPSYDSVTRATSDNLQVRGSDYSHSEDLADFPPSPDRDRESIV
ASSAY PROCEDURE: Peak INa screening assay (tonic block and use-dependent block)
Format: cell-based
RECORDED CONDITIONS: tonic block of Peak INa, 0.1 Hz, holding -100 mV, read-out: Peak TB 3 uM
Where inhibition at 3 µM equals or exceeds 20%, the correct label is Condition met; where it does not, the label is Condition not met.

> print(dat)
                                    molecule           category
 1  FC(F)(F)Oc1ccc(-c2ccc3onc(NCc4ncccn4)c3c2)cc1 [Example 126]  Condition not met
 2  FC(F)(F)Oc1ccc(-c2ccc3onc(NCc4ncco4)c3c2)cc1 [Example 156]  Condition not met
 3  Cc1cccc(COc2noc3ccc(-c4ccc(OC(F)(F)F)cc4)cc23)n1 [Example 95]  Condition not met
 4  CC(=O)N1CCC[C@H]1COc1noc2ccc(-c3ccc(OC(F)(F)F)cc3)cc12 [Example 109]  Condition not met
 5  CC(C)(C)OC(=O)N1CCOC[C@H]1COc1noc2ccc(-c3ccc(OC(F)(F)F)cc3)cc12 [Example 111]  Condition not met
 6  FC(F)(F)Oc1ccc(-c2ccc3onc(OCc4cn5ccccc5n4)c3c2)cc1 [Example 51]  Condition not met
 7  COc1cc(-c2ccc(C(F)(F)F)cc2F)cc2c(OCc3ncccn3)noc12 [Example 24]  Condition not met
 8  CC(C)NC(=O)COc1noc2ccc(-c3ccc(OC(F)(F)F)cc3)cc12 [Example 122]  Condition not met
 9  CN1CCC[C@H]1COc1noc2ccc(-c3ccc(OC(F)(F)F)cc3)cc12 [Example 71]      Condition met
10  C[C@@H](N)COc1noc2ccc(-c3ccc(OC(F)(F)F)cc3)cc12 [Example 117]      Condition met
11  Fc1cc(OC(F)(F)F)ccc1-c1ccc2onc(OCc3ncccn3)c2c1 [Example 2]      Condition met
12  CC(COc1noc2ccc(-c3ccc(OC(F)(F)F)cc3)cc12)n1cccn1 (stereo not drawn) [Example 68]  Condition not met
13  COc1ccnc(COc2noc3ccc(-c4ccc(OC(F)(F)F)cc4)cc23)n1 [Example 67]      Condition met
14  CC(C)c1nnc(COc2noc3ccc(-c4ccc(OC(F)(F)F)cc4)cc23)o1 [Example 100]      Condition met
15  Cc1nnc(COc2noc3ccc(-c4ccc(OC(F)(F)F)cc4)cc23)s1 [Example 101]  Condition not met
16  FC(F)(F)Oc1ccc(-c2ccc3onc(-n4cnc(-c5ccccc5)c4)c3c2)cc1 [Example 142]  Condition not met
17  O=C1OCCN1CCOc1noc2ccc(-c3ccc(OC(F)(F)F)cc3)cc12 [Example 75]      Condition met
18  CC(=O)N1CC(COc2noc3ccc(-c4ccc(OC(F)(F)F)cc4)cc23)C1 [Example 110]  Condition not met
